- experimental system: T1, human GITR-Fc fusion protein (human, UniProt Q9Y5U5 26-162)
- T1 construct: extracellular domain; also called hGITR-Fc; recombinant human GITR-Fc; not shown: Fc part
- T1 sequence (looked up): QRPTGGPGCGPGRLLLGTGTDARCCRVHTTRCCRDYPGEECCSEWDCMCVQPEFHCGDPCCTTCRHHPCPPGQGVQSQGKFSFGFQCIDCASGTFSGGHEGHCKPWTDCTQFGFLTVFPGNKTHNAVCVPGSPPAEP
- assay remarks: competition ELISA, GITRL coated, GITR-Fc 0.25 µg/mL pre-incubated with antibody
endpoint name: IC50

# get_value(readout='IC50', item= anti-GITR antibody clone 698 (antibody, V domains shown, Murine hybridoma antibody; also called 698-GITR2; 698 GITR-2) VH: EVQLQQSGTVLARPGASVKMSCEASGYSFTTYWMHWIKQRPGQGLEWIGAIYPGNSDTGYNQKFKGKAKLTAVTSATTAYMELSSLTDEDSAVYYCTRTSTYPHFDYWGQGTTLTVSS VL: DILLTQSPAILSVSPGERVSFSCRASQSIGTSIHWYQQRTNGSPRLLIKYASESISGIPSRFSGSGSGTDFTLNINSVESEDIADYYCQQSNNWPLTFGAGTKLELK )
1.9 nM

Param item = anti-GITR antibody clone 1718 (antibody, V domains shown, Murine hybridoma antibody; also called 1718-GITR2; 1718 GITR-2) VH: QVQVQQSGPELVKPGASVRISCKASDYTFTNYYIHWVRQRPGQGLEWLGWIYPGKGYTNYNEKFKGKATLTADKSSSTAYMQFSSLTSEDSAVYFCASGYGNYYFPYWGQGTLVTVSA VL: IQMTQSSSYLSVSLGGRVTITCKASDHIKNWLAWYQQKPGNVPRLLMSAATSLETGFPSRFSGSGSGKDFTLTITSLQTEDVATYYCQQYWSTPWTFGGGTKLEIK ; retrieve measured IC50.
1.02 nM

Entry under review: anti-GITR antibody clone 706 (antibody, V domains shown, Murine hybridoma antibody; also called 706-GITR2; 706 GITR-2) VH: EVQLQQSGTVLARPGASVKMSCEASGYSFTTYWMHWIKQRPGQGLEWIGAIYPGNSDTGYNQKFKGKAKLTAVTSASTAYMELSSLTNEDSAVYYCTRTSTYPHFDYWGQGTTLTVSS VL: DILLTQSPAILSVSPGERVSFSCRASQSIGTSIHWYQQRTNGSPRLLIKYASESISGIPSRFSGSGSGTDFTLNINSVESEDIADYYCQQTNNWPLTFGAGTKLELK . Reported IC50?
2.82 nM

// returns reported IC50 for input anti-GITR antibody clone 827 (antibody, V domains shown, Murine hybridoma antibody; also called 827-GITR2; 827 GITR-2) VH: EVQLQQSGTVLARPGASVKMSCETSGYSFTTYWIHWIKQRPGQGLEWIATIYPGNSDAGYNQKFRGKAKLTAVTSASTAYMELSSLTNEDSAVYYCTRSSTYPHFDYWGQGTTLTVSS VL: DILLTQSPAILSVSPGERVSFSCRASQSIGTSIHWYQQRTNDSPRLLIKYASESISGIPSRFSGSGSGTDFTLNINSVESEDIADYYCQQTNNWPLTFGAGTKLELK
2.5 nM

// returns reported IC50 for input anti-GITR antibody clone 1649 (antibody, V domains shown, Murine hybridoma antibody; also called 1649-GITR2; 1649 GITR-2) VH: EVQLQQSGTVLAGPGTSVKMSCEASGYSFTTYWIHWIKQRPGQGLEWIGAIYPGNSDAGYNQKFKGKAKLTAVTSASTAYMELSSLTNEDSAVYYCTRSSTYPHFDYWGQGTTLTVSS VL: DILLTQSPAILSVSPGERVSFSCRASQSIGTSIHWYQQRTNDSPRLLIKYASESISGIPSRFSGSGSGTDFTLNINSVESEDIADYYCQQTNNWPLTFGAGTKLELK
3.76 nM
